As shown below, each of these binders has a reported ΔH value.
Target: T1, HIV-1YU2 gp120 (HIV-1 strain YU-2, UniProt P35961 32-498, limits assumed)
T1 construct: domain: gp120
Assay: ITC; peptide titrated into gp120, 25 °C, PBS pH 7.4
Where no end group is shown, it is not given here. [ ]: non-standard residue; d: D form.

[
  {
    "Binder": "INNI[Azp‑triazole‑ferrocene]W-NH2 (Rink amide resin; also called INNIPW) [UM15]",
    "ΔH, kJ/mol": -69.5
  },
  {
    "Binder": "NNI[Azp‑triazole‑ferrocene]WS-NH2 (Rink amide resin; also called NNIPWS) [UM31]",
    "ΔH, kJ/mol": -57.7
  },
  {
    "Binder": "XNNIPWS (not fully specified; residue 1 is citrulline (Cit); proline 5 is a 1,2,3-triazole-modified proline (Azp) 4-substituted with ferrocene, Rink amide resin; also called CitNNIPWS) [UM24]",
    "ΔH, kJ/mol": -69.9
  },
  {
    "Binder": "RINNI[Azp‑triazole‑ferrocene]W (also called RINNIPW) [UM12]",
    "ΔH, kJ/mol": -82.4
  },
  {
    "Binder": "NNI[Azp‑triazole‑ferrocene]W (also called NNIPW) [UM17]",
    "ΔH, kJ/mol": -55.2
  }
]

Ref: patent US20130274178A1
